Recorded values, source ChEMBL document CHEMBL1153157.

# Test system: Hepatitis C virus
# methodSummary: Antiviral activity against Hepatitis C virus subtype 1b by cell-based replicon assay
# Type: functional, organism-based, Hepacivirus hominis
# cond: genotype 1b
Here, each record is paired with measured log10 EC50 data.
Units before log transform: µM; reported quantity: EC50; transform: log10.

Please review the entries below; each comes with its answer.
{"compound": "O=C(N[C@@H](Cc1c[nH]c2ccc(O)cc12)c1cscn1)c1ccc2c(c1)nc(-c1ccoc1)n2C1CCCCC1", "log10 EC50": 0.23}
{"compound": "O=C(O)/C=C/c1ccc(NC(=O)CNC(=O)c2ccc3c(c2)nc(-c2ccoc2)n3C2CCCCC2)cc1", "log10 EC50": 1.61}
{"compound": "Cn1c(-c2ccoc2)c(C2CCCCC2)c2ccc(C(=O)N[C@@H](Cc3c[nH]c4ccc(O)cc34)c3cscn3)cc21", "log10 EC50": -1.30}
{"compound": "CC(NC(=O)c1ccc2c(c1)nc(-c1ccoc1)n2C1CCCCC1)C(=O)Nc1ccc(/C=C/C(=O)O)cc1 (racemic)", "log10 EC50": 1.11}
{"compound": "C[C@H](NC(=O)c1ccc2c(c1)nc(-c1ccoc1)n2C1CCCCC1)C(=O)Nc1ccc(/C=C/C(=O)O)cc1", "log10 EC50": 1.40}
{"compound": "C[C@@H](NC(=O)c1ccc2c(c1)nc(-c1ccoc1)n2C1CCCCC1)C(=O)Nc1ccc(/C=C/C(=O)O)cc1", "log10 EC50": 0.84}
{"compound": "CC[C@@H](NC(=O)c1ccc2c(c1)nc(-c1ccoc1)n2C1CCCCC1)C(=O)Nc1ccc(/C=C/C(=O)O)cc1", "log10 EC50": 0.81}
{"compound": "CC(NC(=O)c1ccc2c(c1)nc(-c1ccoc1)n2C1CCCCC1)C(=O)Nc1ccc(C(=O)O)cc1 (racemic)", "log10 EC50": 1.48}

# get_value(readout='log10 EC50', item= CC(NC(=O)c1ccc2c(c1)nc(-c1ccoc1)n2C1CCCCC1)C(=O)Nc1ccc(-c2ccc(C(=O)O)o2)cc1 (racemic) ) 1.45

----------
# methodSummary: Aqueous solubility at pH 7.2
# Format: physicochemical
# cond: buffer
readoutLabel: solubility (µg/mL)
Report the figure in µg/mL without appending any unit label.

Look up solubility for this molecule: C[C@@H](NC(=O)c1ccc2c(c1)nc(-c1ccoc1)n2C1CCCCC1)C(=O)Nc1ccc(/C=C/C(=O)O)cc1 171

----------
# measuredTarget: Cytochrome P450 2D6 (Homo sapiens, UniProt P10635)
# Sequence (P10635 whole entry): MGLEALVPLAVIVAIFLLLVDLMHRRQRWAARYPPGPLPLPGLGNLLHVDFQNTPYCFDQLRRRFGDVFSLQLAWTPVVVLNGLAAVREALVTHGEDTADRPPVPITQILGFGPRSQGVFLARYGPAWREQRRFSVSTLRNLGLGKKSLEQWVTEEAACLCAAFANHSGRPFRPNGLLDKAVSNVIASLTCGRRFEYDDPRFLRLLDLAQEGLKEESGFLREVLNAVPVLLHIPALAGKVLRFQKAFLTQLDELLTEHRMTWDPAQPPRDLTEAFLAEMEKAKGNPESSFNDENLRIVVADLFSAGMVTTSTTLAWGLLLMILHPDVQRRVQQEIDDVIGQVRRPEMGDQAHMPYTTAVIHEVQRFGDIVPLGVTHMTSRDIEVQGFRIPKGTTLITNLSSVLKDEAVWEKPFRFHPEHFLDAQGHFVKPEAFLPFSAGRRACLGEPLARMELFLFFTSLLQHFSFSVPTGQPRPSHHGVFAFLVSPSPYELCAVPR
# methodSummary: Inhibition of human liver CYP2D6
# Assay type: ADME
readoutLabel: IC50

Find the recorded IC50 belonging to C[C@@H](NC(=O)c1ccc2c(c1)nc(-c1ccoc1)n2C1CCCCC1)C(=O)Nc1ccc(/C=C/C(=O)O)cc1 and report it. > 30 µM

----------
# measuredTarget: Cytochrome P450 2C9 (Homo sapiens, UniProt P11712)
# Sequence (P11712 whole entry): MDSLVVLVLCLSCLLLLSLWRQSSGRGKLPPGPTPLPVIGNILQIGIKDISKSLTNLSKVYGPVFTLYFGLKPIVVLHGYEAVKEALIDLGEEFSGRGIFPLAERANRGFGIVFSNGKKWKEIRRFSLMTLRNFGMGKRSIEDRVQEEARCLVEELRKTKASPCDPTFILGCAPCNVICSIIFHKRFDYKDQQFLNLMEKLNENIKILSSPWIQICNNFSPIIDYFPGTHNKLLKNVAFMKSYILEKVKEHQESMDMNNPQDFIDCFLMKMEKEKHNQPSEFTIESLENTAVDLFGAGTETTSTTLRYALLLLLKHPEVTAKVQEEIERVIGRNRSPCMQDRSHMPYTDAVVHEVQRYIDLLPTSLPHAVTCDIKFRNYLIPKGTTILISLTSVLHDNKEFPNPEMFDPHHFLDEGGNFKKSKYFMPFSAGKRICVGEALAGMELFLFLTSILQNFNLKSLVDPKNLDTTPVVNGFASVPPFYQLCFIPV
readoutLabel: IC50 (nM)
# output: bare number, implied unit nM

Record lookup: for Cytochrome P450 2C9 (Homo sapiens, UniProt P11712), what IC50 belongs to O=C(N[C@@H](Cc1c[nH]c2ccc(O)cc12)c1cscn1)c1ccc2c(c1)nc(-c1ccoc1)n2C1CCCCC1 ? 2300

----------
Target chain: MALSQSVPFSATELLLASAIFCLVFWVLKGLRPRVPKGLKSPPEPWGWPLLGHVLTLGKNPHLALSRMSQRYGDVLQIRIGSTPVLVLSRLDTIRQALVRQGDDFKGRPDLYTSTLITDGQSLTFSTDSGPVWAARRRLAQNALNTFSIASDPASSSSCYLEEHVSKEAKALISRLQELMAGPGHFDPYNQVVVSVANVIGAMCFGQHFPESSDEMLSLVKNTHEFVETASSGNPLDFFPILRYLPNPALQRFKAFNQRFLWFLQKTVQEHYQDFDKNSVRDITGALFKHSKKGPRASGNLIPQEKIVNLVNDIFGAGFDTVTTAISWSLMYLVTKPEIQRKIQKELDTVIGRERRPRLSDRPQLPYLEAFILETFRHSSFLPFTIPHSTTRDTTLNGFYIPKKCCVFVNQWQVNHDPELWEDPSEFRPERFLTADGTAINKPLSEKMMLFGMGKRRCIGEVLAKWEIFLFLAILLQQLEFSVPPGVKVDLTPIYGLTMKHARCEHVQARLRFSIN
readoutLabel: IC50

{"smilesStructure": "O=C(N[C@@H](Cc1c[nH]c2ccc(O)cc12)c1cscn1)c1ccc2c(c1)nc(-c1ccoc1)n2C1CCCCC1", "IC50": "> 30 µM"}

Continue with the compound presented below.
# query: IC50 of entry C[C@@H](NC(=O)c1ccc2c(c1)nc(-c1ccoc1)n2C1CCCCC1)C(=O)Nc1ccc(/C=C/C(=O)O)cc1 > 30 µM
